Measured values drawn from ChEMBL document CHEMBL5257112 for this set.

TARGET_DESC: Phosphatidylinositol 4,5-bisphosphate 3-kinase catalytic subunit gamma isoform (Homo sapiens, UniProt P48736)
Sequence (P48736 whole entry, canonical isoform): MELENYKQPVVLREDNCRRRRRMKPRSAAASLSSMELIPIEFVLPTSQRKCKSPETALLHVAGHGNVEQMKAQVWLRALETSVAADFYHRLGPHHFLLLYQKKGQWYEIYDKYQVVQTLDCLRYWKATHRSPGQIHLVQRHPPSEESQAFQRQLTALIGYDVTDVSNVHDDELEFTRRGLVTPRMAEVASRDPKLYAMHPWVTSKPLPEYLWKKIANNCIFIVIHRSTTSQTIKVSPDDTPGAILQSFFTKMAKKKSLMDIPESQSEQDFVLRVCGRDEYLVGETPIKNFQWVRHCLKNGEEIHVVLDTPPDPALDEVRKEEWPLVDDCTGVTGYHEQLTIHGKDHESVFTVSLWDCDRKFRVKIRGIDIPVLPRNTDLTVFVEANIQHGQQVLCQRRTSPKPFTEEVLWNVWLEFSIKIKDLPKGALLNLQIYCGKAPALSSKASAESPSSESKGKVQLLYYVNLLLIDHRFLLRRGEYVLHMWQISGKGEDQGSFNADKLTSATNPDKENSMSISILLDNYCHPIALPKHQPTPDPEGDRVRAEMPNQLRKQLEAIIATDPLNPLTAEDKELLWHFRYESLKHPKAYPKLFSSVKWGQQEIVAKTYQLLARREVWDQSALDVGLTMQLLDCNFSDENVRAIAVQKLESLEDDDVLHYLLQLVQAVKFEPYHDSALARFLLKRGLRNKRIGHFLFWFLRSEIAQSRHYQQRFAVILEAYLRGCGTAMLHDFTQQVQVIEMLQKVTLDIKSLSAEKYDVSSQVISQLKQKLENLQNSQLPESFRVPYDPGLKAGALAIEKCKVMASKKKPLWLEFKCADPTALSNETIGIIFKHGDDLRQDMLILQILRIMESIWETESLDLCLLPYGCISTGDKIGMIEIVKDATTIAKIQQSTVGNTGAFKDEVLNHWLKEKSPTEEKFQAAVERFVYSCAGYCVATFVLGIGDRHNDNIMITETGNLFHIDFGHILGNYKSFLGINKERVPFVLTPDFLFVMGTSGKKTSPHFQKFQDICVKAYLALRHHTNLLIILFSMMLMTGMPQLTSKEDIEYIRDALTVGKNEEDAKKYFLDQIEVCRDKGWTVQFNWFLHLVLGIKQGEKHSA
PROTOCOL_NOTES: Inhibition of PI3Kgamma (unknown origin) using PIP2:PS as substrate preincubated for 1 hr followed by ATP and substate addition and measured after 1 hr by ADP-glo reagent based assay

TEST_SMILES | MEASUREMENT_QUALIFIER | IC50 / µM
CCn1c(=O)c2ccnn2c2cc(N)c(C(=O)NCc3cccnc3)cc21 | = | 1.4
CCn1c(=O)c2ccnn2c2cc(NC(C)=O)c(C(=O)NCc3cncnc3)cc21 | > | 20
CCn1c(=O)c2ccnn2c2cc(NC)c(C(=O)NCc3cccnc3)cc21 | > | 20
CCn1c(=O)c2ccnn2c2cc(N)c(C(=O)NCc3cncnc3)cc21 | = | 0.83
CCn1c(=O)c2ccnn2c2cc(N(C)C)c(C(=O)NCc3cccnc3)cc21 | > | 20

---

TARGET_DESC: Phosphatidylinositol 4,5-bisphosphate 3-kinase catalytic subunit beta isoform (Homo sapiens, UniProt P42338)
Sequence (P42338 whole entry, canonical isoform): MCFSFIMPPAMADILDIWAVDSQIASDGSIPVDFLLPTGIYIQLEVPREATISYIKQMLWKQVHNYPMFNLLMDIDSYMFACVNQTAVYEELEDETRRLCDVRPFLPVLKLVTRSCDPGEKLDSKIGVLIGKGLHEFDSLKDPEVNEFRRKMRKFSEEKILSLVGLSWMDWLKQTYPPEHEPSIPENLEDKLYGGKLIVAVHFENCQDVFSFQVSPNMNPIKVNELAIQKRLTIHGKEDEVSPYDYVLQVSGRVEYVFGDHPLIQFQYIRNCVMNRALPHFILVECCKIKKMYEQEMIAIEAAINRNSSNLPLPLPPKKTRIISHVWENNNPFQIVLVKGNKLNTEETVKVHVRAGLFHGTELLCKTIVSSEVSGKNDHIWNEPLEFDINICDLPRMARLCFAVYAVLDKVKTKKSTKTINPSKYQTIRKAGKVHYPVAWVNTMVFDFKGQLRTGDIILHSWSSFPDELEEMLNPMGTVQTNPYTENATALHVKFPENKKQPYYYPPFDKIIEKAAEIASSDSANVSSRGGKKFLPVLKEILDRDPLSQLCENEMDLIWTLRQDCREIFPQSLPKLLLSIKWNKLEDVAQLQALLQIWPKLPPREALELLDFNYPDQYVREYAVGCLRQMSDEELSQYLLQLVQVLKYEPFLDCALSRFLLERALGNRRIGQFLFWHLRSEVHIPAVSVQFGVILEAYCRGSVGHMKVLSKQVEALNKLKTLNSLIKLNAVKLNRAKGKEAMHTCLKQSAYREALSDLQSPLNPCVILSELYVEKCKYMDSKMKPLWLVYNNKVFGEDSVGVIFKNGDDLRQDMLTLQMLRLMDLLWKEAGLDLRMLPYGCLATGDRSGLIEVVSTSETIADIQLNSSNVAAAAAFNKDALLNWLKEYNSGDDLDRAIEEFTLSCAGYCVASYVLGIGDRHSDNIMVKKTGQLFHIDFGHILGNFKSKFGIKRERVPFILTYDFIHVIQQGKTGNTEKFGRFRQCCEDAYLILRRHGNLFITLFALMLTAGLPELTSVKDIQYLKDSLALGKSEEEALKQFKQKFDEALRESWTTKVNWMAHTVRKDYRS
PROTOCOL_NOTES: Inhibition of PI3Kbeta (unknown origin) using PIP2:PS as substrate preincubated for 1 hr followed by ATP and substate addition and measured after 1 hr by ADP-glo reagent based assay
pIC50: −log10 of the molar value.
pIC50 values for the compounds below.
READOUT_NAME: pIC50

TEST_SMILES | MEASUREMENT_QUALIFIER | OBS_VALUE
CCn1c(=O)c2ccnn2c2cc(N(C)C)c(C(=O)NCc3cccnc3)cc21 | = | 4.82
CCn1c(=O)c2ccnn2c2cc(NC(C)=O)c(C(=O)NCc3cncnc3)cc21 | < | 4.70
CCn1c(=O)c2ccnn2c2cc(N)c(C(=O)NCc3cccnc3)cc21 | = | 6.14
CCn1c(=O)c2ccnn2c2cc(N)c(C(=O)NCc3cncnc3)cc21 | < | 5.00
CCn1c(=O)c2ccnn2c2cc(NC)c(C(=O)NCc3cccnc3)cc21 | = | 5.31

---

TARGET_DESC: Phosphatidylinositol 4,5-bisphosphate 3-kinase catalytic subunit alpha isoform (Homo sapiens, UniProt P42336)
Sequence (P42336 whole entry, canonical isoform): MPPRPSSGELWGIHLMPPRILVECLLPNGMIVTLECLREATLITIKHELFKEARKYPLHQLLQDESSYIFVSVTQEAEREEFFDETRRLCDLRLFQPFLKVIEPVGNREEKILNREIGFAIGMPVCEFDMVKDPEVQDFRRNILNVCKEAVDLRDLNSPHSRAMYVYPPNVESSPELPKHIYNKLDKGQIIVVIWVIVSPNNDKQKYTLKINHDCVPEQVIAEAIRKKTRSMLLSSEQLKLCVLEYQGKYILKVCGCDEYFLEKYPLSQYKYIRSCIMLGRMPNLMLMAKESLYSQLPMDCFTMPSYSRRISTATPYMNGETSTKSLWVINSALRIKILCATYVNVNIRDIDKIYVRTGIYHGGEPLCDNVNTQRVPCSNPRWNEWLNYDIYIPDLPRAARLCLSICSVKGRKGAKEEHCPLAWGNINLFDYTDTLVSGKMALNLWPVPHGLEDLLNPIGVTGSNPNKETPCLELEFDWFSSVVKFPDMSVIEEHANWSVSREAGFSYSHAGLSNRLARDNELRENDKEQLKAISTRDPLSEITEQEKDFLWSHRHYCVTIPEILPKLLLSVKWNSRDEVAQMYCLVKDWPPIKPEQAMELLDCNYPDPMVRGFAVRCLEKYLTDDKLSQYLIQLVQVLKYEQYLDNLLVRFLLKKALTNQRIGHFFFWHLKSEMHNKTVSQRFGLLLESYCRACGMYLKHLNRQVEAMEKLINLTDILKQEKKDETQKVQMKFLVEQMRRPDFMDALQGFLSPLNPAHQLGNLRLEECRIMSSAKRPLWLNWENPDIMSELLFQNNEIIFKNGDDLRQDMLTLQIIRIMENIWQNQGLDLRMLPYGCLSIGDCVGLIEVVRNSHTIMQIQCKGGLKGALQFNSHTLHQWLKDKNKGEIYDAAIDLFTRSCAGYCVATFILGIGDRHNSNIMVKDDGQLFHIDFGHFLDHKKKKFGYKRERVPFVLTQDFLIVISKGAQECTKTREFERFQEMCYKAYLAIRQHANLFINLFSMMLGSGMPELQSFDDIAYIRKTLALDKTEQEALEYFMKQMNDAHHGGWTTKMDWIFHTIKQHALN
PROTOCOL_NOTES: Inhibition of PI3Kalpha (unknown origin) using PIP2:PS as substrate preincubated for 1 hr followed by ATP and substate addition and measured after 1 hr by ADP-glo reagent based assay
pIC50: −log10 of the molar value.

COMPOUND | MEASUREMENT_QUALIFIER | pIC50
CCn1c(=O)c2ccnn2c2cc(NC(C)=O)c(C(=O)NCc3cncnc3)cc21 | < | 4.70
CCNC(=O)c1ccc2c(c1)n(CCCN(C)C)c(=O)c1ccnn12 | = | 5.37
CNC(=O)c1ccc2c(c1)n(CCCN(C)C1CCCCC1)c(=O)c1ccnn12 | = | 4.96
CCn1c(=O)c2ccnn2c2ccc(C(=O)NCc3cccnc3C)cc21 | = | 5.35
CCN1C(=O)N2CCCN=C2c2ccc(C(=O)NCc3cccnc3)cc21 | < | 4.70
CCN1C(=O)C2CCCCN2c2ccc(C(=O)NCc3cccnc3)cc21 (configuration not stated) | < | 4.70
Cn1c(=O)c2ccnn2c2ccc(C(=O)NCCN3CCOCC3)cc21 | = | 4.91
CCn1c(=O)c2ccnn2c2ccc(C(=O)NCCN3CCOCC3)cc21 | = | 4.96
CCN1C(=O)[C@H]2CCCN2c2ccc(C(=O)NCc3cccnc3)cc21 | < | 4.70
CCn1c(=O)c2nccn2c2ccc(C(=O)NCc3cccnc3)cc21 | < | 4.70
CCn1c(=O)c2ccnn2c2ccc(C(=O)NCc3ccc(C)nc3)cc21 | = | 5.44
CCn1c(=O)c2ccnn2c2ccc(C(=O)N3CCN(c4ccccc4)CC3)cc21 | < | 4.70
O=C(NCCN1CCOCC1)c1ccc2c(c1)n(Cc1ccccc1)c(=O)c1ccnn12 | = | 4.99
CCn1c(=O)c2ccnn2c2ccc(C(=O)NCc3ccccn3)cc21 | = | 5.54
CCCCn1c(=O)c2ccnn2c2ccc(C(=O)NCc3cccnc3)cc21 | = | 5.70
CCNC(=O)c1ccc2c(c1)n(Cc1ccccc1)c(=O)c1ccnn12 | = | 5.44
CCN1C(=O)[C@@H]2CCCN2c2ccc(C(=O)NCc3cccnc3)cc21 | < | 4.70
CCn1c(=O)c2ccnn2c2ccc(C(=O)N3CCN(C)CC3)cc21 | < | 4.70
CCn1c(=O)c2ccnn2c2ccc(C(=O)NCc3cncnc3)cc21 | = | 5.80
O=C(NCCN1CCOCC1)c1ccc2c(c1)n(Cc1ccc(F)cc1)c(=O)c1ccnn12 | = | 5.02
CCn1c(=O)c2ccnn2c2cc(N)c(C(=O)NCc3cncnc3)cc21 | = | 6.62
CCNC(=O)c1ccc2c(c1)n(CCN1CCCCC1)c(=O)c1ccnn12 | = | 5.28
CCn1c(=O)c2cccn2c2ccc(C(=O)NCc3cccnc3)cc21 | < | 4.70
CCn1c(=O)c2ccnn2c2cc(N)c(C(=O)NCc3cccnc3)cc21 | = | 6.06
CS(=O)(=O)c1ccc(Cn2c(=O)c3ccnn3c3ccc(C(=O)NCc4cccnc4)cc32)cc1 | < | 4.70
CCn1c(=O)c2ccnn2c2ccc(C(=O)NCc3cnn(C)c3)cc21 | = | 5.26
O=C(c1ccc2c(c1)[nH]c(=O)c1ccnn12)N1CCN(C2CCCC2)CC1 | < | 4.70
O=C(NCc1cccnc1)c1ccc2c(c1)n(Cc1ccc(OC(F)(F)F)cc1)c(=O)c1ccnn12 | < | 4.70
CCn1c(=O)c2ccnn2c2ccc(C(=O)NCc3cccnc3)cc21 | = | 5.45
CCn1c(=O)c2cc(C(C)C)nn2c2ccc(C(=O)NCc3cccnc3)cc21 | < | 4.70
CCn1c(=O)c2ccnn2c2cc(NC)c(C(=O)NCc3cccnc3)cc21 | < | 4.70
CC(C)(C)c1ccc(Cn2c(=O)c3ccnn3c3ccc(C(=O)NCc4cccnc4)cc32)cc1 | < | 4.70
CCn1c(=O)c2cc(C)nn2c2ccc(C(=O)NCc3cccnc3)cc21 | = | 4.94
CCn1c(=O)c2ccnn2c2ccc(C(=O)NCc3cnccc3C)cc21 | = | 5.45
O=C(NCc1cccnc1)c1ccc2c(c1)n(Cc1ccc(C(F)(F)F)cc1)c(=O)c1ccnn12 | < | 4.70
CN1CCC(N2CCN(C(=O)c3ccc4c(c3)[nH]c(=O)c3ccnn34)CC2)CC1 | < | 4.70
CCn1c(=O)c2ccnn2c2ccc(C(=O)NCCCN3CCOCC3)cc21 | = | 5.38
CCn1c(=O)c2ccnn2c2ccc(C(=O)NCc3cnccn3)cc21 | = | 5.32
CCn1c(=O)c2cnc(C)n2c2ccc(C(=O)NCc3cccnc3)cc21 | = | 5.44
CCn1c(=O)c2ccnn2c2ccc(C(=O)NCCc3cccnc3)cc21 | = | 4.86
CCN1C(=O)N2CCN=C2c2ccc(C(=O)NCc3cccnc3)cc21 | < | 4.70
CCNC(=O)c1ccc2c(c1)n(CC)c(=O)c1ccnn12 | = | 5.03
